Test system: RARg:RXRa (NR concentration 270 nM, RXRa partner concentration 90 nM)
Assay: PBM binding z-score (relative to random genomic background probes); higher = stronger binding; sequences stand for … in GC…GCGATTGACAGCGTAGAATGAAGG
Give PBM binding z-score for every item shown.
// return just the number, without any unit appended

Recorded PBM binding z-score for ACTCGGAGGACCAAGGTCAGAGCTACGCCAGTGA , please?
2.35

Recorded PBM binding z-score for CCAGACAGGTGAAAGGTGACTCAGTCTGGTACGC , please?
2.35

Recorded PBM binding z-score for GGAACGAGGGCAAGTTGATAGGAGAGTTTGATGG , please?
1.72

Recorded PBM binding z-score for TCTCGGAGGACACGAGAGGTCAGAGCTCGACATC , please?
3.89

Recorded PBM binding z-score for CGAACTAGGTCAAGGACAGTGCATCTCCGCACGC , please?
4.21

Recorded PBM binding z-score for CCTATTAGTTGACCATAAGGGCAACGGAAGCTCG , please?
1.29

Recorded PBM binding z-score for CGTCCAAGGTCAAGGTCAGTGCAAGAGACTCGAA , please?
6.95

Recorded PBM binding z-score for GCAGCCAGGTGAAACGCAGGTAACTCAGGGTGGC , please?
0.262

Recorded PBM binding z-score for CAAACTAAGTCACAGAGGTCAAAGTCCGTGCGTA , please?
5.34

Recorded PBM binding z-score for CCTCGAAGGACAGAAGGTCAGAGCTGTCCGCTTT , please?
3.21

Recorded PBM binding z-score for CGAACTAGGTCGTTGACAGGACAGTGAATAGTAA , please?
1.6

Recorded PBM binding z-score for TCATATAGGTAAAGATGAAAGTCGAACGATATGA , please?
0.547

----------
Tested on: PPARg homodimer (NR concentration 180 nM)
Assay: PBM binding z-score (relative to random genomic background probes); higher = stronger binding; sequences stand for … in GC…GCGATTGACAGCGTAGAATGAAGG
Given measured PBM binding z-score, output True if it is greater than or equal to 0.3 and False if not.

I'd appreciate it if you could say whether CAGCCTAGGTCGGGGCCAGTATAGGAGGAACGTT has PBM binding z-score at least equal to 0.3.
False

I'd appreciate it if you could say whether TCTCGGAGGACACGAAAGATCAGAGCTCGACATC has PBM binding z-score at least equal to 0.3.
False

I'd appreciate it if you could say whether AGAATGAGGTTATACGTAGATAAGGGAAGAAAGT has PBM binding z-score at least equal to 0.3.
True

I'd appreciate it if you could say whether CAACCAAGGTGAACAAGGTCGTTGATTACTATTC has PBM binding z-score at least equal to 0.3.
True

I'd appreciate it if you could say whether ACTAGCAGGCCAAGTTTGGGTCACTCATACAAAG has PBM binding z-score at least equal to 0.3.
True

I'd appreciate it if you could say whether AGGATGAGGTTACCAAAGATCAGGGAAACGCTTG has PBM binding z-score at least equal to 0.3.
True

I'd appreciate it if you could say whether TCTATTAGTTGATTAAGGCAACCGAAACAGCGGA has PBM binding z-score at least equal to 0.3.
True

I'd appreciate it if you could say whether CAGCCTAGGTCAGGGCCAGTAAAGGAGGAACGTT has PBM binding z-score at least equal to 0.3.
True

I'd appreciate it if you could say whether ATACCATGGTGATCGTGAGGTCGTTGATACTAAC has PBM binding z-score at least equal to 0.3.
True

I'd appreciate it if you could say whether GGAACGAAGGCAAAGTTGATAGCATCTGTCGACG has PBM binding z-score at least equal to 0.3.
False

I'd appreciate it if you could say whether CGTCCAAGGTCAAAGGGCAGTGAAGAGATGACGG has PBM binding z-score at least equal to 0.3.
True

I'd appreciate it if you could say whether ACAGACAGGTGATTAAGGTAACTCAGGCTATCAT has PBM binding z-score at least equal to 0.3.
False
